Attribute: Soybean plant response rating
Test system: soybean (Glycine max)
Assay Text: Test D pre-/postemergence plant response
Format: in vivo
Assay Setup: Postemergence, 62 g ai/ha; scale 0 to 100, 0 no effect, 100 complete control
Measurement Kind: Soybean plant response rating

[[record]]
record_smiles = "FC(F)c1cc(-c2ccccc2Oc2ncc(Br)cn2)on1"
data_value = 85

[[record]]
record_smiles = "FC(F)c1cc(-c2c(Cl)cccc2Oc2ncc(Cl)cn2)no1"
data_value = 70

[[record]]
record_smiles = "FC(Cl)(Cl)c1cc(-c2ccccc2Oc2ncc(Cl)cn2)no1"
data_value = 30

[[record]]
record_smiles = "Cc1cc(-c2c(F)cccc2Oc2ncc(Cl)cn2)on1"
data_value = 45


// data source = patent US10131652B2
